- Test system: SK-ES-1
- method_description: IC50 studies, monolayer cell culture assay (CellTiter-Glo cell viability, 72 hours)
- Assay type: cell-based
- condition_label: Homo sapiens, SK-ES1, SK-ES-1, sarcoma, Test III, read-out: IC50 Test (III) Avg
measurement_type: pIC50
Would you please state pIC50, meaning minus log10 of the concentration in mol/L, as a bare number?

Please supply the value of reported pIC50 for the item CC1(C)CCC(C)(C)c2cc(NC(=O)c3ccc(C(=O)O)cc3)ccc21 [TAM, reference compound]
4.14

----------
- Tested on: A549
- method_description: IC50 studies, monolayer cell culture assay (CellTiter-Glo cell viability, 72 hours)
- Type: cell-based
- condition_label: Homo sapiens, A549, lung, Test I, read-out: IC50 Test(I) Avg
measurement_type: IC50 (µM)
Quick note: give the figure in µM, leave out the unit.

Please supply the value of reported IC50 for the item CC1(C)CCC(C)(C)c2cc(NC(=O)c3ccc(C(=O)O)cc3)ccc21 [TAM, reference compound]
59.9

The values you see were collected from patent US20210002209A1.
